- Tested on: S. typhimurium/E. coli reverse mutation, colony counts
- method: Bacterial reverse mutation test (aka Ames test) summary data;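 also: His-minus Salmonella and trp-minus E. coli WP2 uvrA pKM101 with or without liver S9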
Results filed as inconclusive are left out. Activity calls are given as the source filed them. No rule for the calls is given here.
Your reply should match one of these outcome classes. active, inactive

input: Status in this test for Cc1c(O)cccc1C(=O)N[C@@H](CSc1ccccc1)[C@H](O)CN1C[C@H]2CCCC[C@H]2C[C@H]1C(=O)NC(C)(C)C ?
output: inactive

input: Note, next up: O=c1c2ccccc2c(=O)c2c1ccc1[nH]c3c(ccc4c(=O)c5ccccc5c(=O)c43)[nH]c12
output: inactive

input: Note, next up: O=C(O)CN(CC(=O)O)CC(=O)O
output: inactive

input: Note, next up: COc1ccc(CN(CCN(C)C)c2ccccn2)cc1
output: inactive

input: Note, next up: CNC(=O)CSP(=S)(OC)OC
output: active
